Test system: mammary carcinoma cell line MCF-7
Assay: MTS cell viability assay, mammary carcinoma MCF-7 cells
Assay type: cell-based, human
Details: MCF7 + Zn-rhAFP 1.4 μM (Zn:rhAFP 4:1) + drug, 48 h
Property: Coefficient for drug interaction (CDI); scope: individual molecules
Answer with the value's number alone.

Before answering, review these 3 worked examples.
- Molecule: "N.N.[Cl][Pt][Cl] [Cisplatin, cisplatin]"
  Coefficient for drug interaction (CDI): 0.93
- Molecule: "COc1cccc2c1C(=O)c1c(O)c3c(c(O)c1C2=O)C[C@@](O)(C(=O)CO)C[C@@H]3O[C@H]1C[C@H](N)[C@H](O)[C@H](C)O1 [Doxorubicin, doxorubicin]"
  Coefficient for drug interaction (CDI): 0.66
- Molecule: "Oc1ccc(C=Cc2cc(O)cc(O)c2)cc1 [Resveratrol, resveratrol]"
  Coefficient for drug interaction (CDI): 0.72

Moving on to the next molecule.
Lookup: Endpoint output: Coefficient for drug interaction (CDI) of O=c1c(-c2ccc(O)cc2)coc2cc(O)cc(O)c12 [Genistein, genistein] . Value?
Found: 0.82
